target.of.assay: TYK2 (Homo sapiens, UniProt P29597)
Sequence (P29597 whole entry): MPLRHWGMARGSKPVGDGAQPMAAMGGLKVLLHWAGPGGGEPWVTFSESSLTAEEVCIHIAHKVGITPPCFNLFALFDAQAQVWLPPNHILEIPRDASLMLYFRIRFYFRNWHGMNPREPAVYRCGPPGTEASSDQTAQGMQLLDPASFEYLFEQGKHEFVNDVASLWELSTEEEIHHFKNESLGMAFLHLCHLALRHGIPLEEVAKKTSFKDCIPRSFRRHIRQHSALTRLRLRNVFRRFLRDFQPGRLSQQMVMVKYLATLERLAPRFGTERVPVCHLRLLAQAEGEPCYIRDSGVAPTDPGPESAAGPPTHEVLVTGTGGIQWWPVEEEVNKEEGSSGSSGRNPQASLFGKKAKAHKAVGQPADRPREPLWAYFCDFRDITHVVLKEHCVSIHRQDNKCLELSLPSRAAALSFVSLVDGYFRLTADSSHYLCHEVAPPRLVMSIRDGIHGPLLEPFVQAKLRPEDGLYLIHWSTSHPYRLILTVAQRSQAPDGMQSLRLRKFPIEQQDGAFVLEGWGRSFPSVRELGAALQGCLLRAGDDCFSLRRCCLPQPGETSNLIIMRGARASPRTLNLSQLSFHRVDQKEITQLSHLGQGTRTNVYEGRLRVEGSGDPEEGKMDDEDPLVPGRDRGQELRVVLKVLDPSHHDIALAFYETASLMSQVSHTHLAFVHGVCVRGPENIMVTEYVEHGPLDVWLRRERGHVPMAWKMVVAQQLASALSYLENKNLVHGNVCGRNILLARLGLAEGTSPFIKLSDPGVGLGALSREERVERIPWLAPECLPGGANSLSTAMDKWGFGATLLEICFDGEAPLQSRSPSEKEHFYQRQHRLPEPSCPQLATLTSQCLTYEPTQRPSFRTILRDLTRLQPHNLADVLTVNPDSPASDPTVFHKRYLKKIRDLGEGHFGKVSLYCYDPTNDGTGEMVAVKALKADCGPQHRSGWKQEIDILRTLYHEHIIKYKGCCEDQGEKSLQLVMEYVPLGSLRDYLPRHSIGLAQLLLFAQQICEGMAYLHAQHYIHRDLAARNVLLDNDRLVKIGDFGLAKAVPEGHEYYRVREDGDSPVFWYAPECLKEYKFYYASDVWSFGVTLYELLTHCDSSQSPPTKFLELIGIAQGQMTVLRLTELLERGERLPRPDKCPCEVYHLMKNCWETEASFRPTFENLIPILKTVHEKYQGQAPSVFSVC
test: TYK2 degradation MSD assay in OCI-LY10 cells
Assay type: cell-based
Design: endogenous in cells; host or cells: EBV-B cells
experimental.parameters: 4 to 24 hours incubation, read-out: TYK2 MSD DC50 rating in OCI-LY10
measure.name: DC50

INSERT INTO assay_data (compound, measure_name, val) VALUES
  ('Cn1c(=O)n(C2CCC(=O)NC2=O)c2ccc(CN3CCC(Nc4cc(Nc5cccn(-c6ccccn6)c5=O)nn5c(C(=O)N[C@@H]6C[C@@H]6F)cnc45)CC3)cc21 (some centres unmarked)', 'DC50', '> 100 nM'),
  ('CNc1cc(Nc2cccc(-c3ccc(CN4CC5(CCN(c6cccc7c6n(C)c(=O)n7C6CCC(=O)NC6=O)CC5)C4)cn3)c2)nn2c(C(=O)N[C@@H]3C[C@@H]3F)cnc12 (some centres unmarked) [Example K464]', 'DC50', '1 to 10 nM');

If you can, please state the reported DC50 value of CNC(=O)c1cnc(Nc2ccc(CN3CC4(CCN(c5ccc6c(c5)n(C)c(=O)n6C5CCC(=O)NC5=O)CC4)C3)cn2)cc1Nc1cccc(-c2ncc(F)cn2)c1OC (centres unmarked) .
> 100 nM

One more compound: CNc1cc(Nc2cccc(CN(C)Cc3ccc(-c4ccc5c(c4)n(C)c(=O)n5C4CCC(=O)NC4=O)cn3)c2)nn2c(C(=O)NC3CC3)cnc12 (centres unmarked)
> 100 nM

One more compound: CNC(=O)c1cnc(Nc2ccc(CN(C)C3CN(c4ccc5c(c4)n(C)c(=O)n5C4CCC(=O)NC4=O)C3)cn2)cc1Nc1cccc(-c2ncc(F)cn2)c1OC (centres unmarked)
< 1 nM

One more compound: CNc1cc(Nc2cccn(-c3ccc(C(=O)N4CCC(c5ncc(-c6ccc7c(c6)n(C)c(=O)n7C6CCC(=O)NC6=O)cn5)CC4)cn3)c2=O)nn2c(C(=O)N[C@@H]3C[C@@H]3F)cnc12 (some centres unmarked)
> 100 nM

One more compound: CNc1cc(-c2cnn(C3CCC(CN4CC5(CCN(c6cccc7c6n(C)c(=O)n7C6CCC(=O)NC6=O)CC5)C4)CC3)c2)nn2c(C(=O)NC3C[C@@H]3F)cnc12 (some centres unmarked)
> 100 nM

One more compound: CNc1cc(Nc2cccc(-c3ccc(CN4CCC(C#Cc5ccc6c(c5)n(C)c(=O)n6C5CCC(=O)NC5=O)CC4)cn3)c2)nn2c(C(=O)N[C@@H]3C[C@@H]3F)cnc12 (some centres unmarked)
< 1 nM

One more compound: CNc1cc(Nc2cccn(-c3ccc(CN4CCN(c5ccc(-c6ccc7c(c6)n(C)c(=O)n7C6CCC(=O)NC6=O)cc5)CC4)cn3)c2=O)nn2c(C(=O)N[C@@H]3C[C@@H]3F)cnc12 (some centres unmarked)
< 1 nM

One more compound: CNC(=O)c1cnc(Nc2ccc(CN(C)CC3CCN(Cc4cccc5c4n(C)c(=O)n5C4CCC(=O)NC4=O)CC3)cn2)cc1Nc1cccc(-c2ncc(F)cn2)c1OC (centres unmarked)
> 100 nM

One more compound: CNc1cc(Nc2cccn(-c3cc(C(=O)NCCCCCCCCCCc4ccc5c(c4)n(C)c(=O)n5C4CCC(=O)NC4=O)ccn3)c2=O)nn2c(C(=O)N[C@@H]3C[C@@H]3F)cnc12 (some centres unmarked)
> 100 nM
